B1: LINE1-full (parent)
chain: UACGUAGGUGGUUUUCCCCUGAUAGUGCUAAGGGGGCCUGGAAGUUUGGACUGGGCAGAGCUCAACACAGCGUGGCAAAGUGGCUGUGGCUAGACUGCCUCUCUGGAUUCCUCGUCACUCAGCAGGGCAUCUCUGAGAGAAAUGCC

variants of: B1; assay: self-cleavage, relative activity (ratio to wild type); higher = more cleavage; in vitro, sequencing; the parent is a self-cleaving ribozyme
parameter: self-cleavage
Lab note: write the figure by itself, no unit.

What the record says about G106A : self-cleavage is 1.48

What the record says about A24G U46G : self-cleavage is 1.28

What the record says about U20A U62A : self-cleavage is 0.07

What the record says about U20C U39G : self-cleavage is 0.8

What the record says about A30G G83C : self-cleavage is 0.66

What the record says about U1A U20C : self-cleavage is 1.64

What the record says about U96C U132A : self-cleavage is 0.11

What the record says about G35U A142G : self-cleavage is 1.56

What the record says about A30U G35A : self-cleavage is 1.07

What the record says about A22G U96C : self-cleavage is 0.2

What the record says about U13C G33U : self-cleavage is 1.64

What the record says about U20C C116A : self-cleavage is 1.5

What the record says about A59C A138U : self-cleavage is 1.62
